Answer each item with its documented IC50.
Test system: MCF7
Assay: Antiproliferative activity against human MCF7 cells assessed as reduction in cell proliferation measured after 5 days by Cell-titer-Glo assay
Type: functional, cell-based
Conditions: MCF7, 120 h
Give bare numbers, in nM.

Below are worked cases with known answers.
compound_smiles=CC/C(=C(/c1ccc(/C=C/C(=O)O)cc1)c1ccc(N2CCN(C)CC2)cc1)c1ccccc1 test_target=MCF7 meas_value=220
compound_smiles=O=C(O)/C=C/c1ccc(/C(=C(\c2ccc(C(F)(F)F)cc2Cl)C2CCC2)c2ccc3nccn3c2)cc1 test_target=MCF7 meas_value=5.1
compound_smiles=COc1ccc(/C(=C(\c2ccc(/C=C/C(=O)O)cc2)c2ccc(N3CCOCC3)cc2)C2CCC2)c(Cl)c1 test_target=MCF7 meas_value=2.1
compound_smiles=COc1ccc(/C(=C(\c2ccc(/C=C/C(=O)O)cc2)c2ccc(-c3cn[nH]c3)cc2)C2CCC2)c(Cl)c1 test_target=MCF7 meas_value=5.1

Field: IC50. Fill in for each record below.
1. O=C(O)/C=C/c1ccc(/C(=C(\c2ccc(C(F)(F)F)cc2Cl)C2CCC2)c2ccc(-c3cn[nH]c3)cc2)cc1
2. CC/C(=C(/c1ccc(/C=C/C(=O)O)cc1)c1ccc(-c2cscn2)cc1)c1ccccc1

## Output
1: 16; 2: 120

Hi, could you look up IC50 for each item in my list?
1. CC/C(=C(/c1ccc(/C=C/C(=O)O)cc1)c1ccc(-c2nccs2)cc1)c1ccccc1
2. CC/C(=C(/c1ccc(/C=C/C(=O)O)cc1)c1ccc(-c2cn[nH]c2)cc1)c1ccccc1
3. O=C(O)/C=C/c1ccc(/C(=C(\c2ccccc2)C2CCC2)c2ccc3scnc3c2)cc1

## Output
1: 290; 2: 40; 3: 16

Could I get IC50 for every one of these entries?
1. O=C(O)/C=C/c1ccc(/C(=C(\c2ncc(C(F)(F)F)cc2Cl)C2CCC2)c2ccc3scnc3c2)cc1
2. O=C(O)/C=C/c1ccc(/C(=C(\c2ccccc2)C2CCC2)c2ccc(-c3cncs3)cc2)cc1

## Output
1. 2.9
2. 9.2

* * *

Assay: Plasma clearance in CD-1 mouse at 2 mg/kg, iv administered as cassette dose
Format: ADME, organism-based
experimental endpoint: clearance (mL/min/kg)
One number for each entry, in mL/min/kg.

## Input Look up clearance: `COc1ccc(/C(=C(\c2ccc(/C=C/C(=O)O)cc2)c2ccc(-c3cn[nH]c3)cc2)C2CCC2)c(Cl)c1`
## Output 4.8

* * *

Test: AUC in CD-1 mouse at 10 mg/kg, po administered at truncated timecourse (1, 4, 24 hrs)
Type: ADME, organism-based
Conditions: in vivo
Would you mind telling me the reported AUC at 24 h of each entry?
Numbers only, in ng·h/mL.

compound_smiles=COc1ccc(/C(=C(\c2ccc(/C=C/C(=O)O)cc2)c2ccc(-c3cncs3)cc2)C2CCC2)c(Cl)c1 experimental_endpoint="AUC at 24 h" unit_string=ng·h/mL meas_value=3800

Next item in the queue.
## Input What value of AUC at 24 h has been reported for the following compound? `COc1ccc(/C(=C(\c2ccc(/C=C/C(=O)O)cc2)c2ccc(-c3cn[nH]c3)cc2)C2CCC2)c(Cl)c1`
## Output 18000

* * *

Would you kindly list pIC50 for each of these compounds?
Test system: MCF7
Experiment: Antiproliferative activity against human MCF7 cells assessed as reduction in cell proliferation measured after 5 days by Cell-titer-Glo assay
Format: functional, cell-based
Details: MCF7, 120 h
Numbers only, as −log10 of the molar value.

compound_smiles=CC/C(=C(/c1ccc(/C=C/C(=O)O)cc1)c1ccc2ccccc2c1)c1ccccc1 meas_value=6.74

Value sought for every listed compound: pIC50.
1. O=C(O)/C=C/c1ccc(/C(=C(\c2ccc(F)cc2Cl)C2CCC2)c2ccc(-c3cn[nH]c3)cc2)cc1
2. O=C(O)/C=C/c1ccc(/C(=C(\c2ncc(C(F)(F)F)cc2Cl)C2CCC2)c2ccc(-c3cncs3)cc2)cc1
3. CC/C(=C(/c1ccc(/C=C/C(=O)O)cc1)c1ccc2c(cnn2C)c1)c1ccc(F)cc1Cl
4. CC/C(=C(/c1ccc(/C=C/C(=O)O)cc1)c1ccc(-c2cncs2)cc1)c1ccccc1
5. O=C(O)/C=C/c1ccc(/C(=C(\c2ccc(C(F)(F)F)cc2Cl)C2CCC2)c2ccc3scnc3c2)cc1
6. N#Cc1cc(Cl)ccc1/C(=C(\c1ccc(/C=C/C(=O)O)cc1)c1ccc2nccn2c1)C1CCC1
7. O=C(O)/C=C/c1ccc(/C(=C(\c2ncc(C(F)(F)F)cc2Cl)C2CCC2)c2ccc(-c3cn[nH]c3)cc2)cc1
8. O=C(O)/C=C/c1ccc(/C(=C(\c2ccc(F)cc2Cl)C2CCC2)c2ccc(N3CCOCC3)cc2)cc1

## Output
[8.54, 8.14, 7.09, 7.51, 8.59, 8.23, 7.80, 8.30]

Fill in pIC50 for each of the 4 compounds listed.
1. CC/C(=C(/c1ccc(/C=C/C(=O)O)cc1)c1ccc(-n2ccnc2)cc1)c1ccccc1
2. CC/C(=C(\c1ccc(O)cc1)c1ccc(/C=C/C(=O)O)cc1)c1ccccc1
3. N#Cc1cc(Cl)ccc1/C(=C(\c1ccc(/C=C/C(=O)O)cc1)c1ccc(-c2cn[nH]c2)cc1)C1CCC1
4. N#Cc1ccc(/C(=C(\c2ccc(/C=C/C(=O)O)cc2)c2ccc3scnc3c2)C2CCC2)c(Cl)c1

## Output
6.42
8.34
8.36
8.85

Please give pIC50, item by item, for the list that follows.
1. CC/C(=C(/c1ccc(/C=C/C(=O)O)cc1)c1ccc(-c2cnco2)cc1)c1ccccc1
2. CC/C(=C(/c1ccc(/C=C/C(=O)O)cc1)c1ccc(-c2cc[nH]n2)cc1)c1ccccc1
3. COc1ccc(/C(=C(\c2ccc(/C=C/C(=O)O)cc2)c2ccc3nccn3c2)C2CCC2)c(Cl)c1
4. N#Cc1cc(Cl)ccc1/C(=C(\c1ccc(/C=C/C(=O)O)cc1)c1ccc2scnc2c1)C1CCC1

## Output
[7.29, 6.36, 9.15, 9.05]

* * *

Biological target: Estrogen receptor (Homo sapiens) (UniProt P03372)
Sequence (P03372 whole entry): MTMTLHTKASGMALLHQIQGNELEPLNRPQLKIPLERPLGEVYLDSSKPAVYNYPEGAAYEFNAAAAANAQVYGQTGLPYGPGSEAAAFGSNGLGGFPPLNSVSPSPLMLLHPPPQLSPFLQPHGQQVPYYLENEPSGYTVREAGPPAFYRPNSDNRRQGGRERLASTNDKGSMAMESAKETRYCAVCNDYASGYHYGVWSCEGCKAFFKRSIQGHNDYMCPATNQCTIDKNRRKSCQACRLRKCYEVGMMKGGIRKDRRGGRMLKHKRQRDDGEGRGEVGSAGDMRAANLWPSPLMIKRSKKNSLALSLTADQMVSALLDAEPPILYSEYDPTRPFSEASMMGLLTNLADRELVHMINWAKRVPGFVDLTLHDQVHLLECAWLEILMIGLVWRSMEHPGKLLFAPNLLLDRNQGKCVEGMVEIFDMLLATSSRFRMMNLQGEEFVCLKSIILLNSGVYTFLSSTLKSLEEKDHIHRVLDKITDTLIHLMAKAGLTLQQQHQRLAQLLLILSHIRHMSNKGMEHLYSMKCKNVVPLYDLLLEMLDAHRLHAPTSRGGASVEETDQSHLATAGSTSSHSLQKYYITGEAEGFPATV
Experiment: Induction of ERalpha degradation in human MCF7 cells in phenol red free RPMI medium containing 5% charcoal-stripped FBS incubated for 4 hrs by IRDye 800CW/DRAQ5 dye based in-cell Western assay relative to fulvestrant
experimental endpoint: Efficacy (%)
Numbers only, in %.

Worked examples, 3 compounds total:
compound_smiles=N#Cc1cc(Cl)ccc1/C(=C(\c1ccc(/C=C/C(=O)O)cc1)c1ccc2nccn2c1)C1CCC1 test_target="Estrogen receptor (Homo sapiens) (UniProt P03372)" meas_value=93
compound_smiles=O=C(O)/C=C/c1ccc(/C(=C(\c2ccccc2)C2CCC2)c2ccc(-c3cn[nH]c3)cc2)cc1 test_target="Estrogen receptor (Homo sapiens) (UniProt P03372)" meas_value=90
compound_smiles=O=C(O)/C=C/c1ccc(/C(=C(\c2ncc(C(F)(F)F)cc2Cl)C2CCC2)c2ccc(N3CCOCC3)cc2)cc1 test_target="Estrogen receptor (Homo sapiens) (UniProt P03372)" meas_value=92

## Input GET /values?readout=Efficacy&item= `O=C(O)/C=C/c1ccc(/C(=C(\c2ccc(C(F)(F)F)cc2Cl)C2CCC2)c2ccc3nccn3c2)cc1`
## Output 94

* * *

Field: fraction unbound at 10 µM. Provide a value for each of the molecules that follow.
Assay: Fraction unbound in 10% CD-1 mouse plasma at 10 uM measured after 20 to 24 hrs by equlibrium dialysis method
Format: ADME, cell-free
Details: 10% plasma
One number for each entry.

Check out these entries, answers already filled in.
compound_smiles=COc1ccc(/C(=C(\c2ccc(/C=C/C(=O)O)cc2)c2ccc(N3CCOCC3)cc2)C2CCC2)c(Cl)c1 meas_value=0.004
compound_smiles=CC/C(=C(/c1ccc(/C=C/C(=O)O)cc1)c1ccc2[nH]ncc2c1)c1ccc(F)cc1Cl meas_value=0.011

Your task in this section: give fraction unbound at 10 µM for each listed record.
1. COc1ccc(/C(=C(\c2ccc(/C=C/C(=O)O)cc2)c2ccc(-c3cn[nH]c3)cc2)C2CCC2)c(Cl)c1
2. COc1ccc(/C(=C(\c2ccc(/C=C/C(=O)O)cc2)c2ccc3scnc3c2)C2CCC2)c(Cl)c1
3. COc1ccc(/C(=C(\c2ccc(/C=C/C(=O)O)cc2)c2ccc3nccn3c2)C2CCC2)c(Cl)c1

## Output
[0.002, 0.002, 0.015]

## Input # query: fraction unbound at 10 µM of entry `COc1ccc(/C(=C(\c2ccc(/C=C/C(=O)O)cc2)c2ccc(-c3cncs3)cc2)C2CCC2)c(Cl)c1`
## Output 0.001

* * *

Target: Estrogen receptor (Homo sapiens, UniProt P03372)
Sequence (P03372 whole entry): as above
Assay: Induction of ERalpha degradation in human MCF7 cells in phenol red free RPMI medium containing 5% charcoal-stripped FBS incubated for 4 hrs by IRDye 800CW/DRAQ5 dye based in-cell Western assay
experimental endpoint: pEC50
Give bare numbers, as −log10 of the molar value.

Below is a list of molecules. For each, state its recorded pEC50.
1. O=C(O)/C=C/c1ccc(/C(=C(\c2ccc(F)cc2Cl)C2CCC2)c2ccc3nccn3c2)cc1
2. O=C(O)/C=C/c1ccc(/C(=C(\c2ncc(C(F)(F)F)cc2Cl)C2CCC2)c2ccc(-c3cn[nH]c3)cc2)cc1
3. CC/C(=C(/c1ccc(/C=C/C(=O)O)cc1)c1ccc(N2CCCCC2)cc1)c1ccccc1
4. N#Cc1ccc(/C(=C(\c2ccc(/C=C/C(=O)O)cc2)c2ccc(N3CCOCC3)cc2)C2CCC2)c(Cl)c1
5. O=C(O)/C=C/c1ccc(/C(=C(\c2ccc(C(F)(F)F)cc2Cl)C2CCC2)c2ccc(-c3cn[nH]c3)cc2)cc1

## Output
[8.82, 8.55, 6.72, 8.38, 8.32]
